Source: the NIST ThermoML archive (doi:10.1016/j.jct.2019.02.015)

settings: 318.15 K; 101.33 kPa; Liquid; Falling or rolling sphere viscometry
property-measured: viscosity (mPa·s)

compound: CCCCCCCC(=O)[O-].CCCCCC[NH+](CCCCCC)CCCCCC [trihexylammonium octanoate]
viscosity [mPa·s]: 7.02
--
compound: CCCCCCCC(=O)[O-].CCCCCCCC[NH+](CCCCCCCC)CCCCCCCC [trioctylammonium octanoate]
viscosity [mPa·s]: 9.84
--
compound: CCCCCC(=O)[O-].CCCCCC[NH+](CCCCCC)CCCCCC [trihexylammonium hexanoate]
viscosity [mPa·s]: 5.9
--
compound: CCCC(=O)[O-].CCCCCC[NH+](CCCCCC)CCCCCC [trihexylammonium butanoate]
viscosity [mPa·s]: 5.6
--
compound: CCCCCC(=O)[O-].CCCCCCCC[NH+](CCCCCCCC)CCCCCCCC [trioctylammonium hexanoate]
viscosity [mPa·s]: 8.19
--
compound: CCCC(=O)[O-].CCCCCCCC[NH+](CCCCCCCC)CCCCCCCC [trioctylammonium butanoate]
viscosity [mPa·s]: 7.3
